# System: 1,5-AG dehydrogenase
# Assay Summary: Substrate specificity of 1,5-AG dehydrogenase (relative activity on various sugars)
# Format: biochemical, Agrobacterium tumefaciens NT 1130
# Test Conditions: substrate final concentration 5 mM; 1,5-AG = 100; nitrotetrazolium blue, pH 8.0, 37° C.
Relative activity (substrate specificity) values, listed per item
Readout Type: Relative activity (substrate specificity)

Molecule	Observed Result
OC[C@@H](O)[C@@H](O)[C@H](O)[C@@H](O)CO	0
O=C[C@H](O)[C@@H](O)[C@H](O)[C@H](O)CO	11
O[C@H]1[C@H](O)[C@@H](O)[C@H](O)[C@@H](O)[C@H]1O	0
OC[C@H]1OC[C@H](O)[C@@H](O)[C@@H]1O [1,5-AG, 1,5-anhydroglucitol]	100
O=C[C@H](O)[C@@H](O)[C@@H](O)[C@H](O)CO	0
O=C(CO)[C@@H](O)[C@H](O)[C@H](O)CO	2
O=C(CO)[C@@H](O)[C@H](O)[C@@H](O)CO	25
OC[C@H]1O[C@H](O[C@H]2[C@H](O)[C@@H](O)C(O)O[C@@H]2CO)[C@H](O)[C@@H](O)[C@@H]1O (mixture of isomers)	0
